Peptidyl-prolyl cis-trans isomerase FKBP1A (Homo sapiens) Ki data

The molecule identified as CCCCNC(=O)C1CCCN1S(=O)(=O)c1ccc(C)cc1 (stereo unspecified) registered its Ki at > 50 µM

The molecule identified as CCc1ccc(S(=O)(=O)N2CCCCC2C(=O)NCc2ccccc2)cc1 (stereo unspecified) registered its Ki at 1.3 µM

The molecule identified as O=C(NCc1ccccc1)C1CCCN1S(=O)(=O)CCc1ccccc1 (stereo unspecified) registered its Ki at 22 µM

The molecule identified as CCCCCCCCS(=O)(=O)N1CCCC1C(=O)NCc1ccccc1 (stereo unspecified) registered its Ki at > 50 µM

The molecule identified as O=C(NCCc1ccccc1)C1CCCN1C(=O)NCc1ccccc1 (stereo unspecified) registered its Ki at > 30 µM

The molecule identified as O=C(NCc1ccccc1)C1CCCCN1S(=O)(=O)c1ccccc1 (stereo unspecified) registered its Ki at 2.5 µM

The molecule identified as CCCCCCCCS(=O)(=O)N1CCCC1C(=O)NCCCc1ccccc1 (stereo unspecified) registered its Ki at 5.4 µM

The molecule identified as CCCCNC(=O)C1CCCN1C(=O)NC1CCCCC1 (stereo unspecified) registered its Ki at > 50 µM

The molecule identified as CCc1ccccc1NC(=O)N1CCCC1C(=O)NCc1ccccc1 (stereo unspecified) registered its Ki at > 50 µM

The molecule identified as CCc1ccccc1NC(=O)N1CCCC1C(=O)NCCCc1ccccc1 (stereo unspecified) registered its Ki at > 50 µM

The molecule identified as Cc1ccc(S(=O)(=O)N2CCCC2C(=O)NCc2ccccc2)cc1 (stereo unspecified) registered its Ki at > 50 µM

====

Peptidyl-prolyl cis-trans isomerase FKBP1A (Homo sapiens) pKi data
pKi: −log10 of the molar value.

The compound identified as CCCCNC(=O)C1CCCN1C(=O)Nc1ccccc1CC (stereo not drawn) registered its pKi at < 4.30

The compound identified as O=C(NCc1ccccc1)C1CCCN1S(=O)(=O)/C=C/c1ccccc1 (stereo not drawn) registered its pKi at < 4.30

The compound identified as O=C(NCCc1ccccc1)C1CCCN1S(=O)(=O)/C=C/c1ccccc1 (stereo not drawn) registered its pKi at 4.66

====

SUBJECT OF TEST: Peptidyl-prolyl cis-trans isomerase FKBP1A (Homo sapiens, UniProt P62942)
Sequence (P62942 whole entry): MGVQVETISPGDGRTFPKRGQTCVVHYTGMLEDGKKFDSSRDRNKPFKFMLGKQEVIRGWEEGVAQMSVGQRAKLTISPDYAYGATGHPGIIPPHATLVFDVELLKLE
# strict inequality: Ki < 30 µM yields Criterion met, everything else yields Criterion not met

For this compound, is Ki lower than 30 µM? CCCCNC(=O)C1CCCCN1S(=O)(=O)Cc1ccccc1 (stereo unspecified)
Criterion not met

For this compound, is Ki lower than 30 µM? O=C(NCCc1ccccc1)C1CCCN1S(=O)(=O)CCc1ccccc1 (stereo unspecified)
Criterion not met

For this compound, is Ki lower than 30 µM? O=C(NCCCc1ccccc1)C1CCCN1C(=O)Nc1ccccc1 (stereo unspecified)
Criterion met

For this compound, is Ki lower than 30 µM? O=C(NCCCc1ccccc1)C1CCCN1S(=O)(=O)/C=C/c1ccccc1 (stereo unspecified)
Criterion met

For this compound, is Ki lower than 30 µM? O=C(NCCCc1ccccc1)[C@@H]1CCCN1S(=O)(=O)Cc1ccccc1
Criterion met

For this compound, is Ki lower than 30 µM? O=C(NCCCc1ccccc1)[C@@H]1CCCN1C(=O)NCc1ccccc1
Criterion met

For this compound, is Ki lower than 30 µM? CCCCNC(=O)C1CCCCN1S(=O)(=O)c1ccc(CC)cc1 (stereo unspecified)
Criterion met

For this compound, is Ki lower than 30 µM? O=C(NCCCc1ccccc1)C1CCCCN1S(=O)(=O)/C=C/c1ccccc1 (stereo unspecified)
Criterion met

For this compound, is Ki lower than 30 µM? CCCCNC(=O)C1CCCN1C(=O)NCc1ccccc1 (stereo unspecified)
Criterion not met

For this compound, is Ki lower than 30 µM? O=C(NCc1ccccc1)C1CCCCN1S(=O)(=O)Cc1ccccc1 (stereo unspecified)
Criterion not met
